Experiment: intracellular Trypanosoma cruzi inhibitors in host cells – cell-based, plate reader, cherry-pick samples, set 3, dose response (AID 651818);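 note: compounds incubated with infected cells for about four days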
Type: functional
Activity calls are given as the source filed them.
experimental_readout: AC50

1. C[C@@H]1CN([C@H](C)CO)C(=O)Cc2cc(NS(=O)(=O)c3ccccc3)ccc2O[C@@H]1CN(C)Cc1ccc(Cl)c(Cl)c1 :: 3.52 µM (active)
2. C[C@H](CO)N1C[C@H](C)[C@H](CN(C)Cc2ccc(Cl)c(Cl)c2)Oc2c(NC(=O)c3ccc(-c4nccs4)cc3)cccc2C1=O :: 4.5 µM (active)
3. COc1ccc(NC(=O)Nc2ccc3c(c2)C(=O)N([C@H](C)CO)C[C@H](C)[C@@H](CN(C)CC2CCCCC2)OCCCC[C@@H](C)O3)cc1 :: 3.41 µM (active)
4. C[C@@H]1CN([C@@H](C)CO)C(=O)c2cccc(NC(=O)c3nc4ccccc4s3)c2O[C@H]1CN(C)Cc1ccc2c(c1)OCO2 :: 1.78 µM (active)
5. C[C@H]1CN([C@@H](C)CO)C(=O)c2cccc(NC(=O)c3ccc(-c4nccs4)cc3)c2O[C@H]1CN(C)Cc1ccc(C(=O)Nc2ccccc2N)cc1 :: 1.49 µM (active)

###

Molecular target: Phosphomannomutase 2 (Homo sapiens, UniProt O15305)
Sequence (O15305 whole entry): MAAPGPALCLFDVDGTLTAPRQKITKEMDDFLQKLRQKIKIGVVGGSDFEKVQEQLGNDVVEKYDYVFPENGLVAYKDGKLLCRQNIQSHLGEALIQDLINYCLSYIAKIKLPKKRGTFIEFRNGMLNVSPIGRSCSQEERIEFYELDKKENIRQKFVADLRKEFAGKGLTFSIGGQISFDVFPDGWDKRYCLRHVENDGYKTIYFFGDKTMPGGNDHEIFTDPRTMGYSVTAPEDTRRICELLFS
Assay: Counter screen SAR assay for PMM2 inhibitors via a fluorescence intensity assay. [Related pubchem assays (depositor defined):AID1545, AID1574]
Activity calls are given as the source filed them.
Labels: 1 = active, 0 = inactive

1. Cc1c(Cl)cccc1/N=c1\ssnc1Cl :: 0
2. O=[N+]([O-])c1c(Br)cccc1/N=c1\ssnc1Cl :: 1
3. Clc1nss/c1=N\c1cnc2ccccc2c1 :: 0
4. COc1ccc(-c2n[nH]c(=S)[nH]2)cc1OC :: 0

###

Target: Caspase-3 (Homo sapiens, UniProt P42574);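 note: Dose-response selectivity test against caspase-3 for candidate inhibitors of sentrin-specific proteases (SENPs)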
Type: functional
Activity calls are given as the source filed them.
Labels: 1.0 = active, 0.0 = inactive

1) O=C(Nc1ccccc1Cl)Nc1cccc2cccnc12 :: 1.0
2) COc1ccc(-c2nc3ccccc3c(=O)[nH]2)cc1 :: 1.0
3) Clc1ccc(OCc2nc(-c3ccncc3)no2)c(Cl)c1 :: 1.0
4) Cc1cccc(C(=O)n2c(=S)nc3cc(C)ccn32)c1 :: 1.0
5) CCc1ccc(-c2csc(NC(=O)C3=COCCO3)n2)cc1 :: 1.0
6) O=[N+]([O-])c1nn(-c2ccc3c(c2)OCCO3)[n+]([O-])c1NCc1ccccc1Cl :: 0.0
7) CN(c1ccccc1)c1ccc(/C=N/N2CCOCC2)cc1 :: 1.0

###

Biological target: Probable nicotinate-nucleotide adenylyltransferase (Staphylococcus aureus (strain N315), UniProt P65502);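 note: confirmatory dose-response retesting of NadD inhibitor hits first found in an ultra-high-throughput screen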
Sequence (P65502 whole entry): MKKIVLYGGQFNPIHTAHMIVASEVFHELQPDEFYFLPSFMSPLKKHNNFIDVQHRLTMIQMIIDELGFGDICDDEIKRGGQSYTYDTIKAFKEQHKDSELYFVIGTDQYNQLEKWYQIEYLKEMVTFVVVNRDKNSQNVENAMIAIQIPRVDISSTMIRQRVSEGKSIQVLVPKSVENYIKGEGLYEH
Format: functional, Staphylococcus aureus subsp. aureus N315
Conditions: read-out: IC50_Mean
The source made the active and inactive calls.
IC50 values by entry
experimental_readout: IC50

1) N#C/C(=C/c1cn(-c2ccccc2)nc1-c1cccc(S(=O)(=O)N2CCCC2)c1)C(=O)NCc1ccco1 :: 50.1 µM (active)
2) O=C(Cc1cc(O)[nH]n1)N/N=C/C=C/c1ccccc1 :: 23.5 µM (active)
3) CC(C)C[C@@H](CNCC(=O)[C@H](CC(=O)O)NC(=O)c1nc[nH]c1C(=O)N[C@H](CN)CC(C)C)NC(=O)c1[nH]cnc1C(=O)N[C@@H](Cc1ccccc1)C(=O)O :: 44 µM (active)
4) O=C(NNC(=O)c1cc(-c2ccc(Cl)cc2)nc2ccccc12)c1csc(N2CCOCC2)n1 :: 58 µM (active)

This collection of values is drawn from ChEMBL document CHEMBL1201862.
